- TARGET_ENTITY: UniProt P09769
- Sequence (P09769 whole entry, looked up): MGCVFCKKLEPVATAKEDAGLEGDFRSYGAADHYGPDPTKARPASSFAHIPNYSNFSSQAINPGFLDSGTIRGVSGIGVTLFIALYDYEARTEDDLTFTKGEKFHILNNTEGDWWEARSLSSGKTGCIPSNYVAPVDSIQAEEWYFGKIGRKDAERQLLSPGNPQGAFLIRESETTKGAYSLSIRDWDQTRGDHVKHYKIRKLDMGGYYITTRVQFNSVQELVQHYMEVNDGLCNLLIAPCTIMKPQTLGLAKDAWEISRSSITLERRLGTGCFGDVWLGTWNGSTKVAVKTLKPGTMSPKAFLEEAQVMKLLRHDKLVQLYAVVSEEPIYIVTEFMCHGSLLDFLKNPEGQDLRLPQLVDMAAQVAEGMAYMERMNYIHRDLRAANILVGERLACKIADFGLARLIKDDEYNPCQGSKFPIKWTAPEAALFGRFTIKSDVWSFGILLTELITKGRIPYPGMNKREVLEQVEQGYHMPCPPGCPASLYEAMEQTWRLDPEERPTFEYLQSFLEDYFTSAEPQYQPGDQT
- EXPERIMENTAL_PROTOCOL: KINOMEscan competition binding
- RECORDED_CONDITIONS: compound 10.0 µM
OBSERVED_PROPERTY: kinase still bound, per cent of control (%)
Numbers only, in %.

Please fill in: kinase still bound, per cent of control reported for `Cc1ccc(NC(=O)c2cccc(C(C)(C)C#N)c2)cc1Nc1ccc2ncn(C)c(=O)c2c1` = 12

Value of kinase still bound, per cent of control reported for the molecule `CCCS(=O)(=O)Nc1ccc(F)c(C(=O)c2c[nH]c3ncc(-c4ccc(Cl)cc4)cc23)c1F` is 9.2

response.value for `CCOc1cc2ncc(C#N)c(Nc3ccc(OCc4ccccn4)c(Cl)c3)c2cc1NC(=O)/C=C/CN(C)C` (field: kinase still bound, per cent of control) = 40

So for `C=CC(=O)Nc1cccc(Oc2nc(Nc3ccc(N4CCN(C)CC4)cc3OC)ncc2Cl)c1` , the logged kinase still bound, per cent of control turned out to be 100

molecule `CN(C)C/C=C/C(=O)Nc1cccc(Nc2ncc3c(n2)N(C)c2ccccc2C(=O)N3C)c1` , kinase still bound, per cent of control observed: 4.2

So, `COc1cc(C(=O)NC2CCN(C)CC2)ccc1Nc1ncc2c(n1)N(C1CCCC1)CCC(=O)N2C(C)C` ? Its kinase still bound, per cent of control was 100

According to the records, this molecule `O=C(O)c1ccc(Nc2ncc3c(n2)-c2ccc(Cl)cc2C(c2c(F)cccc2F)=NC3)cc1` displays kinase still bound, per cent of control of 7.6

Now consider a different molecule.
For `CCC(=O)N1CCN(c2ccc(-n3c(=O)ccc4cnc5ccc(-c6cnc7ccccc7c6)cc5c43)cc2C(F)(F)F)CC1` the molecule record lists kinase still bound, per cent of control as 78
